Experiment: Stability and malodor coverage evaluation of odorants in permanent hair color crème (10% ammonia)
Design: key: E=excellent; VG=very good; G=good; F=fair; P=poor
Conditions: odorant at 0.2% in dye less permanent hair color crème (10% ammonia hydroxide), 2 weeks, oven temperature
QUANTITY MEASURED: odorant performance 2 Weeks Oven

{"COMPOUND": "CC(C)CC1CC(C)(O)CCO1 (stereo not drawn)", "RESULT": "P"}
{"COMPOUND": "CCC/C=C/C=O [TRANS-2-HEXENAL @ 10% DPG, TRANS-2-HEXENAL]", "RESULT": "F"}
{"COMPOUND": "C=CCOC(=O)COCCC(C)C [ALLYL AMYL GLYCOLATE]", "RESULT": "F"}
{"COMPOUND": "CCCCCCC(C=O)=Cc1ccccc1", "RESULT": "G"}
{"COMPOUND": "CC=CC(=O)C1=C(C)CCCC1(C)C", "RESULT": "VG"}
{"COMPOUND": "CC(C=O)Cc1ccc(C(C)(C)C)cc1 (stereo not drawn) [Lilial, p-t-Butyl-α-methylhydrocinnamic aldehyde]", "RESULT": "G"}
{"COMPOUND": "CCOC(=O)CC(C)=O [ETHYL ACETOACETATE]", "RESULT": "F"}
{"COMPOUND": "CC1CC=CCCCCCCCCCC(=O)C1 (stereo not drawn)", "RESULT": "F"}

What odorant performance 2 Weeks Oven value was documented for this compound, C=CC(C)(O)CCC=C(C)C (stereo not drawn) [LINALOOL SYNTHETIC, LINALOOL] ?
G

Any idea what its odorant performance 2 Weeks Oven is? The compound is CC/C=C\CCOC(C)=O [cis-3-hexenyl acetate]
G

What does the data say about its odorant performance 2 Weeks Oven? Entry: O=C(OCc1ccccc1)c1ccccc1O [BENZYL SALICYLATE]
G

Which measured odorant performance 2 Weeks Oven value corresponds to `CCc1ccc(CC(C)(C)C=O)cc1` ?
G

====

Experiment: Stability and malodor coverage evaluation of odorants in permanent hair color crème (10% ammonia)
Set-up: key: E=excellent; VG=very good; G=good; F=fair; P=poor
Conditions: odorant at 0.2% in dye less permanent hair color crème (10% ammonia hydroxide), 4 weeks, oven temperature
QUANTITY MEASURED: odorant performance 4 Weeks Oven

# count of solved cases: 5
{"COMPOUND": "CC1CC=CCCCCCCCCCC(=O)C1 (stereo not drawn)", "RESULT": "F"}
{"COMPOUND": "CC(C=O)Cc1ccc(C(C)(C)C)cc1 (stereo not drawn) [Lilial, p-t-Butyl-α-methylhydrocinnamic aldehyde]", "RESULT": "G"}
{"COMPOUND": "CC=CC(=O)C1=C(C)CCCC1(C)C", "RESULT": "G"}
{"COMPOUND": "C=CC(C)(O)CCC=C(C)C (stereo not drawn) [LINALOOL SYNTHETIC, LINALOOL]", "RESULT": "G"}
{"COMPOUND": "CC/C=C\\CCOC(C)=O [cis-3-hexenyl acetate]", "RESULT": "F"}

Alright, here's another compound for you.
# odorant performance 4 Weeks Oven lookup, item CC(C)CC1CC(C)(O)CCO1 (stereo not drawn)
P

====

Assay: Stability and malodor coverage evaluation of odorants in permanent hair color crème (10% ammonia)
Set-up: key: E=excellent; VG=very good; G=good; F=fair; P=poor
Details: odorant at 0.2% in dye less permanent hair color crème (10% ammonia hydroxide), 2 weeks, room temperature
QUANTITY MEASURED: odorant performance 2 Weeks RT

Example entries and their recorded answers appear below.
{"MOLECULE": "CCOC(=O)CC(C)=O [ETHYL ACETOACETATE]", "odorant performance 2 Weeks RT": "F"}
{"MOLECULE": "CC(C)CC1CC(C)(O)CCO1 (stereo not drawn) [FLOROL]", "odorant performance 2 Weeks RT": "P"}
{"MOLECULE": "CCc1ccc(CC(C)(C)C=O)cc1 [FLORALOZONE]", "odorant performance 2 Weeks RT": "G"}
{"MOLECULE": "CC(C=O)Cc1ccc(C(C)(C)C)cc1 (stereo not drawn) [Lilial, p-t-Butyl-α-methylhydrocinnamic aldehyde]", "odorant performance 2 Weeks RT": "G"}
{"MOLECULE": "CCC/C=C/C=O [TRANS-2-HEXENAL @ 10% DPG, TRANS-2-HEXENAL]", "odorant performance 2 Weeks RT": "G"}
{"MOLECULE": "CC/C=C\\CCOC(C)=O [cis-3-hexenyl acetate]", "odorant performance 2 Weeks RT": "G"}
{"MOLECULE": "O=C(OCc1ccccc1)c1ccccc1O [BENZYL SALICYLATE]", "odorant performance 2 Weeks RT": "G"}
{"MOLECULE": "CCCCCCC(C=O)=Cc1ccccc1 [Hexyl cinnamic aldehyde]", "odorant performance 2 Weeks RT": "G"}
{"MOLECULE": "C=CCOC(=O)COCCC(C)C [ALLYL AMYL GLYCOLATE]", "odorant performance 2 Weeks RT": "G"}
{"MOLECULE": "CC=CC(=O)C1=C(C)CCCC1(C)C [β-damascone]", "odorant performance 2 Weeks RT": "E"}

Given the molecule C=CC(C)(O)CCC=C(C)C (stereo not drawn) [LINALOOL SYNTHETIC, LINALOOL] , what is its reported odorant performance 2 Weeks RT?
G

Query: odorant performance 2 Weeks RT; subject: CC1CC=CCCCCCCCCCC(=O)C1 (stereo not drawn) [MUSCENONE @ 10% DPG]
F

====

Experiment: Stability and malodor coverage evaluation of odorants in permanent hair color crème (10% ammonia)
Set-up: key: E=excellent; VG=very good; G=good; F=fair; P=poor
Settings: odorant at 0.2% in dye less permanent hair color crème (10% ammonia hydroxide), 4 weeks, room temperature
QUANTITY MEASURED: odorant performance 4 Weeks RT

Below are worked cases with known answers.
{"MOLECULE": "C=CCOC(=O)COCCC(C)C [ALLYL AMYL GLYCOLATE]", "QUANTITY MEASURED": "odorant performance 4 Weeks RT", "RESULT": "G"}
{"MOLECULE": "CC1CC=CCCCCCCCCCC(=O)C1 (stereo not drawn)", "QUANTITY MEASURED": "odorant performance 4 Weeks RT", "RESULT": "F"}
{"MOLECULE": "CCCCCCC(C=O)=Cc1ccccc1", "QUANTITY MEASURED": "odorant performance 4 Weeks RT", "RESULT": "G"}
{"MOLECULE": "C=CC(C)(O)CCC=C(C)C (stereo not drawn) [LINALOOL SYNTHETIC, LINALOOL]", "QUANTITY MEASURED": "odorant performance 4 Weeks RT", "RESULT": "G"}
{"MOLECULE": "CCC/C=C/C=O [TRANS-2-HEXENAL @ 10% DPG, TRANS-2-HEXENAL]", "QUANTITY MEASURED": "odorant performance 4 Weeks RT", "RESULT": "F"}
{"MOLECULE": "CCOC(=O)CC(C)=O [ETHYL ACETOACETATE]", "QUANTITY MEASURED": "odorant performance 4 Weeks RT", "RESULT": "F"}
{"MOLECULE": "CC=CC(=O)C1=C(C)CCCC1(C)C", "QUANTITY MEASURED": "odorant performance 4 Weeks RT", "RESULT": "VG"}
{"MOLECULE": "CC(C)CC1CC(C)(O)CCO1 (stereo not drawn)", "QUANTITY MEASURED": "odorant performance 4 Weeks RT", "RESULT": "P"}

GET /values?readout=odorant performance 4 Weeks RT&item= CC(C=O)Cc1ccc(C(C)(C)C)cc1 (stereo not drawn) [Lilial, p-t-Butyl-α-methylhydrocinnamic aldehyde]
G

Consider the molecule shown here: `CCc1ccc(CC(C)(C)C=O)cc1` What is its recorded odorant performance 4 Weeks RT?
G

For CC/C=C\CCOC(C)=O [cis-3-hexenyl acetate] , what is its reported odorant performance 4 Weeks RT?
F

# query: odorant performance 4 Weeks RT of entry O=C(OCc1ccccc1)c1ccccc1O [BENZYL SALICYLATE]
F

====

Assay: Stability and malodor coverage evaluation of odorants in permanent hair color crème (10% ammonia)
Design: key: E=excellent; VG=very good; G=good; F=fair; P=poor
Conditions: odorant at 0.2% in dye less permanent hair color crème (10% ammonia hydroxide), 4 weeks, oven temperature
QUANTITY MEASURED: odorant performance 4 Weeks Oven

# annotated cases, reported odorant performance 4 Weeks Oven shown
{"COMPOUND": "CCCCCCC(C=O)=Cc1ccccc1", "RESULT": "G"}
{"COMPOUND": "O=C(OCc1ccccc1)c1ccccc1O [BENZYL SALICYLATE]", "RESULT": "F"}
{"COMPOUND": "CCc1ccc(CC(C)(C)C=O)cc1", "RESULT": "G"}
{"COMPOUND": "CCC/C=C/C=O [TRANS-2-HEXENAL @ 10% DPG, TRANS-2-HEXENAL]", "RESULT": "F"}
{"COMPOUND": "C=CCOC(=O)COCCC(C)C [ALLYL AMYL GLYCOLATE]", "RESULT": "F"}

Note: attention shifts to another entry.
Give its odorant performance 4 Weeks Oven value. Item: CCOC(=O)CC(C)=O [ETHYL ACETOACETATE]
F
